Listed binders paired with reported log10 Relative cAMP EC50
Molecular target: hGLP-1R (Homo sapiens, UniProt P43220)
Sequence (P43220 24-463): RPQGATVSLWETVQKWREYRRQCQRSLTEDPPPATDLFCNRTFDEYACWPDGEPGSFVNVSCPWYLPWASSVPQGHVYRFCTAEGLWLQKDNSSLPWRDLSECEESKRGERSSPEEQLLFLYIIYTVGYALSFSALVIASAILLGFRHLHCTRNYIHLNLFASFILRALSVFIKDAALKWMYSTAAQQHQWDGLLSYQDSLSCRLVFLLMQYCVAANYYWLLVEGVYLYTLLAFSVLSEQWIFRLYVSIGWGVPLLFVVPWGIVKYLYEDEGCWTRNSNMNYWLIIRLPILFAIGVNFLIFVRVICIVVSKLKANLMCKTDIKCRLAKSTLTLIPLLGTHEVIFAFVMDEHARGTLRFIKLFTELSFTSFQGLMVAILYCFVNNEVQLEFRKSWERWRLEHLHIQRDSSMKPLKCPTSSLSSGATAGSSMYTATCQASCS
Test: cell-based or functional assay
Non-standard residues stand in square brackets, D forms with d. No end group written: not given here. Phe(4-CN) = N#Cc1ccc(C[C@H](N)C(=O)O)cc1; αMePhe(2-F) = C[C@](N)(Cc1ccccc1F)C(=O)O; Aib = CC(C)(N)C(=O)O
VALUE TYPE: log10 Relative cAMP EC50 (log10 of the value in nM)

# BINDER, RECORDED VALUE
rows = [
    ("Y[Aib]QGT[αMePhe(2-F)]TSD[Phe(4-CN)]SILLDKQAQKAFIEYLLEGGPSSGEPPPSAG-NH2 (not fully specified (residue 20)) [Example 350]", -0.11),
    ("HXQGTXTSDYSILLDKKAQXAFIEYLEEGGPSSGAPPPS (not fully specified; synthetic construct; SITE 2: note = 2-Aminoisobutyric Acid; SITE 6: note = alpha-methyl-2-fluoro-L-phenylalanine; SITE 17: note = Lysine is chemically modified through conjugation of the epsilon-amino group of the Lysine side chain with (2-[2-(2-Amino-ethoxy)-ethoxy]-acetyl)-(gamma-Glu)-CO-(CH2) 16-) [Example 425]", -0.82),
    ("YXQGTFTSDFSXXLDKKAQXQFIEYLLAGGPSSGAPPPEGS (synthetic construct; SITE 2: note = 2-Aminoisobutyric Acid; SITE 12: note = L-ornithine; SITE 13: note = alpha-methyl-leucine; SITE 17: note = Lysine is chemically modified through conjugation of the epsilon-amino group of the Lysine side chain with (2-[2-(2-Amino-ethoxy)-ethoxy]-acetyl)-(gamma-Glu)) [Example 96]", 0.59),
    ("YXQGTFTSDXSQXLDKKAQXAFIEYLLEAGPSSGAPPPSGS (synthetic construct; SITE 2: note = 2-Aminoisobutyric Acid; SITE 10: note = 3-(4-Pyridyl)-L-alanine; SITE 13: note = alpha-methyl-leucine; SITE 17: note = Lysine is chemically modified through conjugation of the epsilon-amino group of the Lysine side chain with (2-[2-(2-Amino-ethoxy)-ethoxy]-acetyl)) [Example 820]", 0.44),
    ("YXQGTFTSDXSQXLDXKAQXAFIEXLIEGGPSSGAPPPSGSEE (Aib, 4Pal, αMeL, Orn, Me4Pal, αMeY; acylated Lys; C-terminal amide; synthetic construct; SITE 2: note = 2-Aminoisobutyric Acid; SITE 10: note = 3-(4-Pyridyl)-L-alanine; SITE 13: note = alpha-methyl-leucine; SITE 16: note = L-ornithine; SITE 17: note = Lysine is chemically modified through conjugation of the epsilon-amino group of the Lysine side chain with D-Glutami) [Example 1070]", 0.19),
    ("YXQGTXTSDXSIXLDKKAQXAFIEYLEEGGPSSGAPEPS (synthetic construct; SITE 2: note = 2-Aminoisobutyric Acid; SITE 6: note = alpha-methyl-2-fluoro-L-phenylalanine; SITE 10: note = 3-(4-Pyridyl)-L-alanine; SITE 13: note = alpha-methyl-leucine; SITE 17: note = Lysine is chemically modified through conjugation of the epsilon-amino group of the Lysine) [Example 443]", -0.24),
]

Attribution: patent US20240270821A1
